- Tested on: H-EMC-SS
- EXPERIMENTAL PROTOCOL: Antiproliferative activity against human HEMC-SS cells treated for 24 hrs under normoxic condition followed by compound wash-out and incubated under normoxic condition for 48 hrs by alamar blue assay
- Type: cell-based
Could you mark each record 1 if its IC50 falls strictly under 30 µM, and -1 if it equals or exceeds it?

{"MOLECULE": "CC[N+](CC)(CC)CCCNP(=O)(OCc1cnc([N+](=O)[O-])n1C)N(CCCl)CCCl.[I-] (stereo unspecified)", "ASSIGNED LABEL": 1}
{"MOLECULE": "CC[N+](C)(CCCCNP(=O)(OCc1cnc([N+](=O)[O-])n1C)N(CCCl)CCCl)Cc1ccccc1.[I-] (stereo unspecified)", "ASSIGNED LABEL": -1}
{"MOLECULE": "CC[N+](C)(C)CCCCNP(=O)(OCc1cnc([N+](=O)[O-])n1C)N(CCCl)CCCl.[I-] (stereo unspecified)", "ASSIGNED LABEL": 1}
{"MOLECULE": "Cn1c(COP(=O)(NCCCCC[N+](C)(C)C)N(CCCl)CCCl)cnc1[N+](=O)[O-].[I-] (stereo unspecified)", "ASSIGNED LABEL": 1}
{"MOLECULE": "Cn1c(COP(=O)(NCC[N+](C)(C)Cc2ccccc2)N(CCCl)CCCl)cnc1[N+](=O)[O-].[I-] (stereo unspecified)", "ASSIGNED LABEL": 1}

----------
- System: H-EMC-SS
- EXPERIMENTAL PROTOCOL: Antiproliferative activity against human HEMC-SS cells treated for 24 hrs under normoxic condition followed by compound wash-out and incubated under normoxic condition for 48 hrs by alamar blue assay
- Format: cell-based
pIC50: −log10 of the molar value.
Classification field: enter true (1) for pIC50 values not below 5, false (0) for values below it.

{"COMPOUND": "Cn1c(COP(=O)(NCCCC[N+](C)(C)Cc2ccccc2)N(CCCl)CCCl)cnc1[N+](=O)[O-].[I-] (stereo not drawn)", "ASSIGNED LABEL": "false (0)"}
{"COMPOUND": "CC[N+](C)(C)CCCCCNP(=O)(OCc1cnc([N+](=O)[O-])n1C)N(CCCl)CCCl.[I-] (stereo not drawn)", "ASSIGNED LABEL": "false (0)"}
{"COMPOUND": "Cn1c(COP(=O)(NCCBr)NCCBr)cnc1[N+](=O)[O-] [EVOFOSFAMIDE]", "ASSIGNED LABEL": "true (1)"}
{"COMPOUND": "Cn1c(COP(=O)(NCCCCC[N+](C)(C)Cc2ccccc2)N(CCCl)CCCl)cnc1[N+](=O)[O-].[I-] (stereo not drawn)", "ASSIGNED LABEL": "false (0)"}
{"COMPOUND": "CC[N+](C)(CCCNP(=O)(OCc1cnc([N+](=O)[O-])n1C)N(CCCl)CCCl)Cc1ccccc1.[I-] (stereo not drawn)", "ASSIGNED LABEL": "false (0)"}
{"COMPOUND": "Cn1c(COP(=O)(NCCC[N+](C)(C)Cc2ccccc2)N(CCCl)CCCl)cnc1[N+](=O)[O-].[I-] (stereo not drawn)", "ASSIGNED LABEL": "true (1)"}

----------
- EXPERIMENTAL PROTOCOL: Chemical stability in pH 7.4 sodium phosphate buffer assessed as drug metabolism at 17 uM at 37 degC after 24 hrs by RP-HPLC analysis
- Assay type: physicochemical
- CONDITION NOTES: read-out: Drug metabolism
RESULT TYPE: degraded at 24 h, 17 µM

{"COMPOUND": "CC[N+](C)(CCCCNP(=O)(OCc1cnc([N+](=O)[O-])n1C)N(CCCl)CCCl)Cc1ccccc1.[I-] (stereo unspecified)", "RESULT TYPE": "degraded at 24 h, 17 µM", "MEASURED RESULT": "< 5%"}

----------
- System: H-EMC-SS
- EXPERIMENTAL PROTOCOL: Antiproliferative activity against human HEMC-SS cells treated for 24 hrs under hypoxic condition followed by compound wash-out and incubated under normoxic condition for 48 hrs by alamar blue assay
- Type: functional, cell-based
RESULT TYPE: IC50 (µM)

{"COMPOUND": "CC[N+](CC)(CC)CCCNP(=O)(OCc1cnc([N+](=O)[O-])n1C)N(CCCl)CCCl.[I-] (stereo not given)", "RESULT TYPE": "IC50", "MEASURED RESULT": 1.4}
{"COMPOUND": "Cn1c(COP(=O)(NCC[N+](C)(C)Cc2ccccc2)N(CCCl)CCCl)cnc1[N+](=O)[O-].[I-] (stereo not given)", "RESULT TYPE": "IC50", "MEASURED RESULT": 1.1}
{"COMPOUND": "CC[N+](C)(C)CCCCCNP(=O)(OCc1cnc([N+](=O)[O-])n1C)N(CCCl)CCCl.[I-] (stereo not given)", "RESULT TYPE": "IC50", "MEASURED RESULT": 1.5}
{"COMPOUND": "CC[N+](C)(CCCCCNP(=O)(OCc1cnc([N+](=O)[O-])n1C)N(CCCl)CCCl)Cc1ccccc1.[I-] (stereo not given)", "RESULT TYPE": "IC50", "MEASURED RESULT": 0.8}
{"COMPOUND": "CC[N+](C)(C)CCCCNP(=O)(OCc1cnc([N+](=O)[O-])n1C)N(CCCl)CCCl.[I-] (stereo not given)", "RESULT TYPE": "IC50", "MEASURED RESULT": 1.5}
